Sourced from patent US10472336B2

- target under test: indoleamine 2, 3-dioxygenase (IDO1) (Homo sapiens, UniProt P14902)
- Sequence (P14902 whole entry): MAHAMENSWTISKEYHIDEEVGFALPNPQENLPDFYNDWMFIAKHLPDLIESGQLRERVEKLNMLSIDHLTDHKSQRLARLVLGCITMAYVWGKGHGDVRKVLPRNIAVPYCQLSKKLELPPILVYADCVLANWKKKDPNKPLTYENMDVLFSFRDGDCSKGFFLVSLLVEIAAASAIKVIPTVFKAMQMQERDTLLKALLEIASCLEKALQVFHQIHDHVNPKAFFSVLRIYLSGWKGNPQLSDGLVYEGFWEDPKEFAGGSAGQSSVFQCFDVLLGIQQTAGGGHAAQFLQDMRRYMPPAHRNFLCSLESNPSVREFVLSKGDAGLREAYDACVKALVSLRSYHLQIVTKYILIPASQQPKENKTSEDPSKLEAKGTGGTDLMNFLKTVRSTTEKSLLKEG
- test: PBMC IDOi assay (kynurenine detection by mass spectrometry)
- Assay type: cell-based
- measurement context: IFN-γ and LPS stimulated human PBMC, 2 days
observable: EC50 (nM)

molecule="CC(C)CN(c1ccc(C(C)CC(=O)O)cc1Nc1cccc(C(F)(F)F)c1)C1CCCCC1 (stereo not shown)" observable=EC50 assay_value=15.8

(a) Cc1nc(C(F)(F)F)sc1Nc1cc(C(C)CC(=O)O)ccc1N(CC(C)C)CC(C)C (stereo not shown)
(b) CC(C)CN(c1ccc([C@H](C)CC(=O)O)cc1Nc1nc(C(F)(F)F)cs1)C1CCCCC1
Q) Just curious, which one has the larger EC50 reading, a or b ? To answer, give the label that identifies your chosen option.
A) a
(a: 398 nM, b: 0.794 nM)

* * *

- target under test: indoleamine 2, 3-dioxygenase (IDO1) (Homo sapiens)
- test: HeLa IDOi assay (kynurenine detection by mass spectrometry)
- Format: cell-based
- Set-up: human epithelial HeLa cells (CCL-2; host or cells: HeLa cells stimulated with human IFN-γ
- measurement context: IFN-γ stimulated human epithelial HeLa cells, 2 days
- Procedure: Compounds of the present invention were tested via high-throughput cellular assays utilizing detection of kynurenine via mass spectrometry and cytotoxicity as end-points. […] Cellular toxicity due to the effect of compound treatment was measured using CellTiter-Glo® reagent (CTG) (Promega Corporation, Madison, Wis.), which is based on luminescent detection of ATP, an indicator of metabolically active cells. […]
pEC50: −log10 of the molar value.
observable: pEC50

compound="Cc1cnc(Nc2cc(C(C)CC(=O)O)ccc2N(CC(C)C)CC(C)C)s1 (centres unmarked) [Example 15]" assay_value=6.80
compound="COc1nccc(Nc2cc(C(C)CC(=O)O)ccc2N(CC(C)C)C2CCCCC2)n1 (centres unmarked) [Example 14]" assay_value=7.40
compound="CC(C)CN(c1ccc(C(C)CC(=O)O)cc1NC1CCOCC1)C1CCCCC1 (centres unmarked) [Example 70]" assay_value=6.90
compound="CC(C)CN(CC(C)C)c1ccc(C(C)CC(=O)O)cc1Nc1nnc(C2CC2)s1 (centres unmarked) [Example 26]" assay_value=8.30
compound="CC(C)CN(c1ccc(C(C)CC(=O)O)cc1NC1=N[C@@H](C)CS1)C1CCCCC1 (some centres unmarked) [Example 73]" assay_value=6.40
compound="CCCCc1cc(C(C)CC(=O)O)cc(Nc2nc3ccccc3o2)c1OCCC (centres unmarked) [Example 35]" assay_value=6.70
compound="CC(C)CN(c1ccc(C(C)CC(=O)O)cc1Nc1nc(C(F)(F)F)ns1)C1CCCCC1 (centres unmarked) [Example 33]" assay_value=8.60
compound="CC(C)CN(c1ccc(C(C)CC(=O)O)cc1NCc1ccco1)C1CCCCC1 (centres unmarked) [Example 59]" assay_value=6.30
compound="COc1nccc(Nc2cc(C(C)CC(=O)O)ccc2N(CC(C)C)CC(C)C)n1 (centres unmarked) [Example 12]" assay_value=6.90
compound="CC(C)CN(c1ccc(C(C)CC(=O)O)cc1NCc1cccs1)C1CCCCC1 (centres unmarked) [Example 20]" assay_value=6.90

(1) CC(C)CN(c1ccc(C(C)CC(=O)O)cc1NC1CCCCC1)C1CCCCC1 (centres unmarked) [Example 19]
(2) CC(C)CN(c1ccc(C(C)CC(=O)O)cc1Nc1ccnc(Cl)n1)C1CCCCC1 (centres unmarked) [Example 13]
Q) Just curious, which one has the larger pEC50 reading, 1 or 2 ? To answer, give the label that identifies your chosen option.
A) 2
(2: 7.90, 1: 7.00)

* * *

- target under test: indoleamine 2, 3-dioxygenase (IDO1) (Homo sapiens)
- test: HeLa IDOi assay (kynurenine detection by mass spectrometry)
- Type: cell-based
- Set-up: human epithelial HeLa cells (CCL-2; host or cells: HeLa cells stimulated with human IFN-γ
- measurement context: IFN-γ stimulated human epithelial HeLa cells, 2 days
- Experimental: Compounds of the present invention were tested via high-throughput cellular assays utilizing detection of kynurenine via mass spectrometry and cytotoxicity as end-points. […] Cellular toxicity due to the effect of compound treatment was measured using CellTiter-Glo® reagent (CTG) (Promega Corporation, Madison, Wis.), which is based on luminescent detection of ATP, an indicator of metabolically active cells. […]
pEC50: −log10 of the molar value.
observable: pEC50

compound=CC(C)CN(CC(C)C)c1ccc([C@@H](C)CC(=O)O)cc1Nc1nc(Cl)ns1 target_under_test="indoleamine 2, 3-dioxygenase (IDO1) (Homo sapiens)" observable=pEC50 assay_value=7.20

(I) CC(C)CN(CC(C)C)c1ccc(C(C)CC(=O)O)cc1Nc1nnc(C2CC2)[nH]1 (stereo not shown)
(II) CC(C)CN(c1ccc([C@@H](C)CC(=O)O)cc1Nc1nc(Cl)ns1)C1CCCCC1
(III) CC(C)CN(CC(C)C)c1ccc([C@H](C)CC(=O)O)cc1Nc1nc(C(F)(F)F)ns1
Q) Please produce an ascending ranking of these compounds based on pEC50. Put the labels in the requested order and list them out.
A) I, II, III

* * *

- target under test: indoleamine 2, 3-dioxygenase (IDO1) (Homo sapiens, UniProt P14902)
- test: HeLa IDOi assay (kynurenine detection by mass spectrometry)
- Format: cell-based
- Design: human epithelial HeLa cells (CCL-2; host or cells: HeLa cells stimulated with human IFN-γ
- measurement context: IFN-γ stimulated human epithelial HeLa cells, 2 days
observable: EC50 (nM)

Record excerpt, results attached:
molecule="CC(C)CN(CC(C)C)c1ccc(C(C)CC(=O)O)cc1Nc1nc(Cl)ns1 (centres unmarked) [Example 25]" target_under_test="indoleamine 2, 3-dioxygenase (IDO1) (Homo sapiens, UniProt P14902)" assay_value=31.6
molecule="CC(C)CN(CC(C)C)c1ccc([C@H](C)CC(=O)O)cc1Nc1nc(Cl)ns1 [Example 42]" target_under_test="indoleamine 2, 3-dioxygenase (IDO1) (Homo sapiens, UniProt P14902)" assay_value=39.8

(A) Cc1nnc(Nc2cc(C(C)CC(=O)O)ccc2N(CC(C)C)CC(C)C)s1 (centres unmarked) [Example 28]
(B) CC(C)CN(c1ccc([C@@H](C)CC(=O)O)cc1Nc1nnc(C2CC2)s1)C1CCCCC1 [Example 57]
Q) Just curious, which one has the larger EC50 reading, A or B ? To answer, give the label that identifies your chosen option.
A) A
(A: 31.6 nM, B: 2 nM)

* * *

- target under test: indoleamine 2, 3-dioxygenase (IDO1) (Homo sapiens)
- test: HeLa IDOi assay (kynurenine detection by mass spectrometry)
- Type: cell-based
- Set-up: human epithelial HeLa cells (CCL-2; host or cells: HeLa cells stimulated with human IFN-γ
- measurement context: IFN-γ stimulated human epithelial HeLa cells, 2 days
pEC50: −log10 of the molar value.
observable: pEC50

Record excerpt, results attached:
compound="CC(C)CN(CC(C)C)c1ccc(C(C)CC(=O)O)cc1Nc1nc(-c2ccccc2)co1 (centres unmarked)" observable=pEC50 assay_value=6.30
compound="CC(C)CN(CC(C)C)c1ccc(C(C)CC(=O)O)cc1Nc1nc(C2CC2)ns1 (centres unmarked)" observable=pEC50 assay_value=7.30
compound="CC(C)CN(c1ccc(C(C)CC(=O)O)cc1Nc1nc2ccccc2o1)C1CCCCC1 (centres unmarked)" observable=pEC50 assay_value=7.50

(1) CC(C)CN(c1ccc(C(C)CC(=O)O)cc1NC1=N[C@H](C)CS1)C1CCCCC1 (some centres unmarked)
(2) CC(C)CN(c1ccc(C(C)CC(=O)O)cc1NCc1ccccc1)C1CCCCC1 (centres unmarked)
(3) CC(C)CN(c1ccc(C(C)CC(=O)O)cc1Nc1nc(Br)ns1)C1CCCCC1 (centres unmarked)
(4) CC(C)CN(CC(C)C)c1ccc(C(C)CC(=O)O)cc1Nc1nc(C(F)(F)F)cs1 (centres unmarked)
Q) Please produce an ascending ranking of these compounds based on pEC50. Put the labels in the requested order and list them out.
A) 1, 2, 3, 4

* * *

- target under test: indoleamine 2, 3-dioxygenase (IDO1) (Homo sapiens)
- test: PBMC IDOi assay (kynurenine detection by mass spectrometry)
- Assay type: cell-based
- measurement context: IFN-γ and LPS stimulated human PBMC, 2 days
observable: EC50 (µM)

molecule=CC(C)CN(c1ccc([C@H](C)CC(=O)O)cc1Nc1nc(Cl)ns1)C1CCCCC1 assay_value=0.000631
molecule=CC(C)CN(c1ccc([C@H](C)CC(=O)O)cc1Nc1ccnc(Cl)n1)C1CCCCC1 assay_value=0.02
molecule="CC(C)CN(CC(C)C)c1ccc(C(C)CC(=O)O)cc1Nc1nnc(C(F)(F)F)s1 (centres unmarked)" assay_value=0.000631
molecule="CC(C)CN(CC(C)C)c1ccc(C(C)CC(=O)O)cc1Nc1ccncc1 (centres unmarked)" assay_value=0.2
molecule="CC(C)CN(c1ccc(C(C)CC(=O)O)cc1NCc1ccco1)C1CCCCC1 (centres unmarked)" assay_value=0.2
molecule="CC(C)CN(CC(C)C)c1ccc(C(C)CC(=O)O)cc1Nc1nc(Cl)ns1 (centres unmarked)" assay_value=0.0251

(I) CC(C)CN(c1ccc(C(C)CC(=O)O)cc1NCc1cccs1)C1CCCCC1 (centres unmarked)
(II) Cc1nnc(Nc2cc(C(C)CC(=O)O)ccc2N(CC(C)C)CC(C)C)[nH]1 (centres unmarked)
Q) Just curious, which one has the larger EC50 reading, I or II ? To answer, give the label that identifies your chosen option.
A) II
(II: 0.2 µM, I: 0.0501 µM)
